Measured −dP/dt × 1000 (relaxation rate) values are reported for all entries that follow.
# Test system: isolated rat hearts
# procedure summary: Langendorff-perfused isolated rat heart: mechanical performance (RPP, HR, ±dP/dt, cardiac efficiency)
# measurement context: hearts treated at the IC50

compound	−dP/dt × 1000 (relaxation rate)
CC(=O)C=C(C)[O-].Cc1ccnc(-c2cc(C)ccn2)c1.O.O.O=[N+]([O-])[O-].[Cu+2] [Cas III-ia]	−1.0 ± 0.16^∗ mmHg·s^−1
Cc1ccnc2c1ccc1c(C)ccnc12.NCC(=O)[O-].O.O.O=[N+]([O-])[O-].[Cu+2] [Cas II-gly]	−0.7 ± 0.09^∗ mmHg·s^−1
CC(=O)C=C(C)[O-].Cc1ccnc2c1ccc1c(C)ccnc12.O.O.O=[N+]([O-])[O-].[Cu+2] [Cas III-Ea]	−0.8 ± 0.13^∗ mmHg·s^−1
COc1cccc2c1C(=O)c1c(O)c3c(c(O)c1C2=O)C[C@@](O)(C(=O)CO)C[C@@H]3O[C@H]1C[C@H](N)[C@H](O)[C@H](C)O1 [Doxo, Doxorubicin, reference compound]	−0.8 ± 0.18^∗ mmHg·s^−1
